- experiment: self-splicing fitness, log relative to wild type (ln ratio); higher = more splicing; Tetrahymena group I intron in knt gene, E. coli kanamycin selection, DiMSum; sequences stand for … in CUCUCU…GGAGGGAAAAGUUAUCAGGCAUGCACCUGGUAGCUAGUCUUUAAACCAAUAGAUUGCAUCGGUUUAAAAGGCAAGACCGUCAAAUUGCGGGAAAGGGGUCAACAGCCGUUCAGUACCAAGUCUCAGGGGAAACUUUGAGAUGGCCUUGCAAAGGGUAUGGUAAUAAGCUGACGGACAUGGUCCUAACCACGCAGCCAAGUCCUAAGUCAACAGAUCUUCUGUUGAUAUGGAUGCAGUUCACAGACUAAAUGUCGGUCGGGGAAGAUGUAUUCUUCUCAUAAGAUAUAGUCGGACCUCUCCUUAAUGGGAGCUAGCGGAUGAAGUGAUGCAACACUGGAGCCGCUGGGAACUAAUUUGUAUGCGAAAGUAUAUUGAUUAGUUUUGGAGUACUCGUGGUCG;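 further: selection with 25 µg/mL kanamycin versus none on LB agar overnight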
- condition_details: 37 °C
Hi there, I'd appreciate the recorded self-splicing fitness (ln) for every entry that follows.
Numbers only.

Consider the worked cases shown below.
| sequence_entry | self-splicing fitness (ln) |
| --- | --- |
| GCACAGCAAUAUUACGACUA | -0.702 |
| GCGUAGCAAUAUUACGUAUA | -1.52 |
| UCGAAGCAAUAUUACGCAAU | -2.03 |
| CGGGAGCAAUAUUACGCCGG | -1.81 |
| CCGUAGCAAUAUUACGUAUA | -2.72 |

Below are some sequences; for each one, tell me its self-splicing fitness (ln).
1. CACAAGCAAUAUUACGCUUA
2. CAUAAGCAAUAUUACGGAGC

1. -2.15
2. -3.35

###

- experiment: self-splicing fitness, log relative to wild type (ln ratio); higher = more splicing; Tetrahymena group I intron in knt gene, E. coli kanamycin selection, DiMSum; sequences stand for … in CUCUCU…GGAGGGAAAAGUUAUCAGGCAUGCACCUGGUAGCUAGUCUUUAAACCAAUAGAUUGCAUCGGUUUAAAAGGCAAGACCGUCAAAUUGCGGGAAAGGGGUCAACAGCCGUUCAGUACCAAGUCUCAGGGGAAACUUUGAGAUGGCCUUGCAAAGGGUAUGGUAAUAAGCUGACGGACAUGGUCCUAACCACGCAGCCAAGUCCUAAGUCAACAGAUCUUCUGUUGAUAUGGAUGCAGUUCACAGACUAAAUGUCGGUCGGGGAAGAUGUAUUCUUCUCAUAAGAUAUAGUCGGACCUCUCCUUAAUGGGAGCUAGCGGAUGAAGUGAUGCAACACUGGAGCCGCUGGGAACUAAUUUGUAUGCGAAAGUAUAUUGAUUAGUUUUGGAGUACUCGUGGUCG
- condition_details: 37 °C
Hi there, I'd appreciate the recorded self-splicing fitness (ln) for every entry that follows.
Give bare numbers.

Consider the worked cases shown below.
| sequence_entry | self-splicing fitness (ln) |
| --- | --- |
| GUCAAGCAAUAUUACGGCUC | 0.181 |
| ACGAAGCAAUAUUACGGAAC | -1.95 |
| GUGGAGCAAUAUUACGGCAA | -1.55 |
| GUAUAGCAAUAUUACGUGGU | -1.29 |
| ACUUAGCAAUAUUACGCCUC | -1.64 |
| GGCGAGCAAUAUUACGUAUG | -1.01 |

Below are some sequences; for each one, tell me its self-splicing fitness (ln).
1. GGCUAGCAAUAUUACGUACA
2. UUCGAGCAAUAUUACGUGCA
3. GGAUAGCAAUAUUACGGGUU

[-0.185, -1.4, -1.42]

// query self-splicing fitness (ln) value for entry `AGAGAGCAAUAUUACGAGGA` -2.21
